# Procedure Summary: Pharmacokinetic evaluation of liquid bevirimat dosage forms, oral gavage, male Cynomolgus monkeys
# Condition: male, cynomolgus monkey, in vivo, po, 50 mg FAE/monkey, Plasma concentration, 0.50 hr; 12.5 mg FAE/mL in 40% PG, 20% Glycerin, 1% TPGS, 0.25% Tween80, 0.2% NaCMC, 50 mg FAE/monkey oral gavage; monkeys 117,118,119,AVG
Attribute Measured: concentration at 0.5 hr (ng/mL)
Write the number in ng/mL without appending the unit.

## Task Consider the compound C=C(C)[C@@H]1CC[C@]2(C(=O)O)CC[C@]3(C)[C@H](CC[C@@H]4[C@@]5(C)CC[C@H](OC(=O)CC(C)(C)C(=O)O)C(C)(C)[C@@H]5CC[C@]43C)[C@@H]12 and give its measured concentration at 0.5 hr.
## Result 12500

###

# Procedure Summary: Pharmacokinetic evaluation of liquid bevirimat dosage forms, oral gavage, male Cynomolgus monkeys
# Condition: male, cynomolgus monkey, in vivo, po, 50 mg/monkey, Plasma Concentration, PG/glycerin/Vitamin ETPGS/Tween80/Plasdone C15 formulation; 24 hr; individual monkey
Attribute Measured: concentration at 24 h (ng/mL)
Write the number in ng/mL without appending the unit.

## Task Consider the molecule C=C(C)[C@@H]1CC[C@]2(C(=O)O)CC[C@]3(C)[C@H](CC[C@@H]4[C@@]5(C)CC[C@H](OC(=O)CC(C)(C)C(=O)O)C(C)(C)[C@@H]5CC[C@]43C)[C@@H]12 [Bevirimat] and give its measured concentration at 24 h.
## Result 1320

###

# Procedure Summary: in vivo
# Condition: male, cynomolgus monkey, in vivo, po, 200 mg, tmax
# Text: Six male Cynomolgus monkeys having an initial body weight of about 3.5 to about 4.5 kg are allowed 7 days to acclimate to their individual housing units. Monkeys are supplied with water and a commercial diet ad libitum prior to the study initiation. Food is withheld from the monkeys for a minimum of twelve hours before the study and during the study until four hours postdose when food is returned. Water is supplied ad libitum. […]
Attribute Measured: Tmax (h)
Write the number in h without appending the unit.

## Task Consider the compound C=C(C)[C@@H]1CC[C@]2(C(=O)O)CC[C@]3(C)[C@H](CC[C@@H]4[C@@]5(C)CC[C@H](OC(=O)CC(C)(C)C(=O)O)C(C)(C)[C@@H]5CC[C@]43C)[C@@H]12 and give its measured Tmax.
## Result 2

###

# Procedure Summary: Pharmacokinetic evaluation of liquid bevirimat dosage forms, oral gavage, male Cynomolgus monkeys
# Condition: male, cynomolgus monkey, in vivo, 50 mg/kg, pH 8
Attribute Measured: concentration at 1 hr
Enter the number, and then the unit.

## Task Consider the compound C=C(C)[C@@H]1CC[C@]2(C(=O)O)CC[C@]3(C)[C@H](CC[C@@H]4[C@@]5(C)CC[C@H](OC(=O)CC(C)(C)C(=O)O)C(C)(C)[C@@H]5CC[C@]43C)[C@@H]12 and give its measured concentration at 1 hr.
## Result 108 µg/mL

###

# Procedure Summary: Pharmacokinetic evaluation of liquid bevirimat dosage forms, oral gavage, male Cynomolgus monkeys
# Condition: male, cynomolgus monkey, in vivo, po, 50 mg/monkey, Plasma Concentration, PG/glycerin/Vitamin ETPGS/Tween80/Plasdone C15 formulation; 8.0 hr; individual monkey
Attribute Measured: concentration at 8 h (ng/mL)
Write the number in ng/mL without appending the unit.

## Task Consider the molecule C=C(C)[C@@H]1CC[C@]2(C(=O)O)CC[C@]3(C)[C@H](CC[C@@H]4[C@@]5(C)CC[C@H](OC(=O)CC(C)(C)C(=O)O)C(C)(C)[C@@H]5CC[C@]43C)[C@@H]12 [Bevirimat] and give its measured concentration at 8 h.
## Result 22300

###

# Procedure Summary: Pharmacokinetic evaluation of liquid bevirimat dosage forms, oral gavage, male Cynomolgus monkeys
# Condition: male, cynomolgus monkey, in vivo, po, 50 mg FAE, Plasma concentration, 24 hr; 12.5 mg FAE/mL in 40% PG, 20% Glycerin, 0.25% Tween80, 0.2% Povidone K15, 50 mg FAE oral gavage; monkeys 186,116,120,AVG
Attribute Measured: concentration at 24 hr (ng/mL)
Write the number in ng/mL without appending the unit.

## Task Consider the compound C=C(C)[C@@H]1CC[C@]2(C(=O)O)CC[C@]3(C)[C@H](CC[C@@H]4[C@@]5(C)CC[C@H](OC(=O)CC(C)(C)C(=O)O)C(C)(C)[C@@H]5CC[C@]43C)[C@@H]12 and give its measured concentration at 24 hr.
## Result 434

###

# Procedure Summary: Pharmacokinetic evaluation of liquid bevirimat dosage forms, oral gavage, male Cynomolgus monkeys
# Condition: male, cynomolgus monkey, in vivo, po, 50 mg FAE/monkey, Plasma concentration, 4.0 hr; 12.5 mg FAE/mL in 15% EtOH:0.5% TPGS:15% PG:5% Glycerin, 0.2% Povidone K90, 50 mg FAE/monkey oral gavage; monkeys 117,118,119,AVG
Attribute Measured: concentration at 4 hr (ng/mL)
Write the number in ng/mL without appending the unit.

## Task Consider the compound C=C(C)[C@@H]1CC[C@]2(C(=O)O)CC[C@]3(C)[C@H](CC[C@@H]4[C@@]5(C)CC[C@H](OC(=O)CC(C)(C)C(=O)O)C(C)(C)[C@@H]5CC[C@]43C)[C@@H]12 and give its measured concentration at 4 hr.
## Result 33100

###

# Procedure Summary: Pharmacokinetic evaluation of liquid bevirimat dosage forms, oral gavage, male Cynomolgus monkeys
# Condition: male, cynomolgus monkey, in vivo, po, 200 mg/monkey, Plasma Concentration, PG/glycerin/Vitamin ETPGS/ethanol formulation; 8.0 hr; AVG
Attribute Measured: concentration at 8 hr (µg/mL)
Write the number in µg/mL without appending the unit.

## Task Consider the compound C=C(C)[C@@H]1CC[C@]2(C(=O)O)CC[C@]3(C)[C@H](CC[C@@H]4[C@@]5(C)CC[C@H](OC(=O)CC(C)(C)C(=O)O)C(C)(C)[C@@H]5CC[C@]43C)[C@@H]12 and give its measured concentration at 8 hr.
## Result 51.3

###

# Procedure Summary: Pharmacokinetic evaluation of liquid bevirimat dosage forms, oral gavage, male Cynomolgus monkeys
# Condition: male, cynomolgus monkey, in vivo, po, 50 mg/monkey, Plasma Concentration, PG/glycerin/Vitamin ETPGS/Tween80/Plasdone C15 formulation; 6.0 hr; AVG
Attribute Measured: concentration at 6 h
Enter the number, and then the unit.

## Task Consider the molecule C=C(C)[C@@H]1CC[C@]2(C(=O)O)CC[C@]3(C)[C@H](CC[C@@H]4[C@@]5(C)CC[C@H](OC(=O)CC(C)(C)C(=O)O)C(C)(C)[C@@H]5CC[C@]43C)[C@@H]12 and give its measured concentration at 6 h.
## Result 32300 ng/mL

###

# Procedure Summary: Pharmacokinetic evaluation of liquid bevirimat dosage forms, oral gavage, male Cynomolgus monkeys
# Condition: male, cynomolgus monkey, in vivo, po, 50 mg, t1/2, oral, 50 mg/monkey, PG/glycerin/Vitamin ETPGS/Tween80/Plasdone C15 formulation; AVG
Attribute Measured: half-life

## Task Consider the compound C=C(C)[C@@H]1CC[C@]2(C(=O)O)CC[C@]3(C)[C@H](CC[C@@H]4[C@@]5(C)CC[C@H](OC(=O)CC(C)(C)C(=O)O)C(C)(C)[C@@H]5CC[C@]43C)[C@@H]12 and give its measured half-life.
## Result 6.4 h

###

# Procedure Summary: Pharmacokinetic evaluation of liquid bevirimat dosage forms, oral gavage, male Cynomolgus monkeys
# Condition: male, cynomolgus monkey, in vivo, po, 200 mg, Cmax, 200 mg/monkey, PG/glycerin/Vitamin ETPGS/ethanol formulation; AVG
Attribute Measured: Cmax (µg/mL)
Write the number in µg/mL without appending the unit.

## Task Consider the molecule C=C(C)[C@@H]1CC[C@]2(C(=O)O)CC[C@]3(C)[C@H](CC[C@@H]4[C@@]5(C)CC[C@H](OC(=O)CC(C)(C)C(=O)O)C(C)(C)[C@@H]5CC[C@]43C)[C@@H]12 and give its measured Cmax.
## Result 217

###

# Procedure Summary: Pharmacokinetic evaluation of bevirimat HPβCD formulation, intravenous, male Cynomolgus monkeys
# Condition: male, cynomolgus monkey, in vivo, iv, 10 mg FAE/monkey, Plasma concentration, 0.50 hr; 2.5 mg FAE/mL in 10% HPβCD+3% Mannitol in water, 10 mg FAE/monkey intravenous injection; monkeys 115,116,120,AVG
Attribute Measured: concentration at 0.5 hr
Enter the number, and then the unit.

## Task Consider the compound C=C(C)[C@@H]1CC[C@]2(C(=O)O)CC[C@]3(C)[C@H](CC[C@@H]4[C@@]5(C)CC[C@H](OC(=O)CC(C)(C)C(=O)O)C(C)(C)[C@@H]5CC[C@]43C)[C@@H]12 and give its measured concentration at 0.5 hr.
## Result 25300 ng/mL

###

# Procedure Summary: Pharmacokinetic evaluation of liquid bevirimat dosage forms, oral gavage, male Cynomolgus monkeys
# Condition: male, cynomolgus monkey, in vivo, po, 50 mg/monkey, Plasma Concentration, PG/glycerin/Vitamin ETPGS/ethanol formulation; 4.0 hr; AVG
Attribute Measured: concentration at 4 hr
Enter the number, and then the unit.

## Task Consider the molecule C=C(C)[C@@H]1CC[C@]2(C(=O)O)CC[C@]3(C)[C@H](CC[C@@H]4[C@@]5(C)CC[C@H](OC(=O)CC(C)(C)C(=O)O)C(C)(C)[C@@H]5CC[C@]43C)[C@@H]12 [Bevirimat] and give its measured concentration at 4 hr.
## Result 42500 ng/mL
